Measured protein stability index by item
B1: TRIB1 (parent)
chain: EIGTSDQIVPEYQEDSDISSFFC

Variants of: B1
Protocol: protein stability index of a GFP-peptide fusion (GPS, HEK-293T) (PSI 1-6); higher = more stable;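 also: lentivirally expressed fusions sorted by FACS into six bins by GFP to DsRed ratio, PSI derived from sequencing read proportions per bin multiplied by bin number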
Applied Conditions: c terminus: native
Endpoint Label: protein stability index

>  <Biosequence>
EIGTSDQIVPEVQEDSDISSFFC [Y12V]

>  <Numeric Value>
3.07

$$$$
>  <Biosequence>
EIPTSDQIVPEYQEDSDISSFFC [G3P]

>  <Numeric Value>
2.97

$$$$
>  <Biosequence>
EIGTHDQIVPEYQEDSDISSFFC [S5H]

>  <Numeric Value>
3.06

$$$$
>  <Biosequence>
EIGTLDQIVPEYQEDSDISSFFC [S5L]

>  <Numeric Value>
2.95

$$$$
>  <Biosequence>
EIGTSDQIVPEYREDSDISSFFC [Q13R]

>  <Numeric Value>
2.92

$$$$
>  <Biosequence>
EIGTSDQIVPELQEDSDISSFFC [Y12L]

>  <Numeric Value>
3.06

$$$$
>  <Biosequence>
EIGTSDQIVPEYQEDSDVSSFFC [I18V]

>  <Numeric Value>
3.08

$$$$
>  <Biosequence>
EIGTSDQIVPEYQEDSDLSSFFC [I18L]

>  <Numeric Value>
2.92

$$$$
